# assay-system: Delta-type opioid receptor (Rattus norvegicus, UniProt P33533)
# Sequence (P33533 whole entry): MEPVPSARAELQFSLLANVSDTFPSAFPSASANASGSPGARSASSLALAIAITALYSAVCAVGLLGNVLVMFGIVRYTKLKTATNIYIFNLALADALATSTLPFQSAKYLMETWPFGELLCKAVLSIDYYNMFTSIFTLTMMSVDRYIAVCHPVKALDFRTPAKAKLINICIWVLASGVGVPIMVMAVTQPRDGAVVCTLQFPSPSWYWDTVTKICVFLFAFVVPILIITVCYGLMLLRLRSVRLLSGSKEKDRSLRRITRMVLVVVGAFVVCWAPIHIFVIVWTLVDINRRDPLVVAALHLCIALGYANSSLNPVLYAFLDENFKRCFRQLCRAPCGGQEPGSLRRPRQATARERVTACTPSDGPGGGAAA
# experimental-protocol: Agonist activity at rat delta opioid receptor expressed in rat C6 cells assessed as stimulation of [35S]-GTPgammaS binding after 1 hr by liquid scintillation counting analysis
# Format: functional, cell-based
result-type: EC50

Solved entries (count: 8):
compound	result-type	endpoint-result
Cc1cc(O)cc(C)c1C[C@H](N)C(=O)N1CCN(C/C=C/Cc2ccccc2)CC1	EC50	Not Active
Cc1cc(O)cc(C)c1C[C@H](N)C(=O)N1CCC(CCCc2ccccc2)CC1	EC50	Not Active
Cc1cc(O)cc(C)c1C[C@H](N)C(=O)N1CCN(CCC(c2ccccc2)c2ccccc2)CC1	EC50	Not Active
Cc1cc(O)cc(C)c1C[C@H](N)C(=O)N1CCC(Cc2ccccc2)CC1	EC50	Not Active
Cc1cc(O)cc(C)c1C[C@H](N)C(=O)N1CCN(CCCc2ccccc2)CC1	EC50	Not Active
Cc1cc(O)cc(C)c1C[C@H](N)C(=O)N1CCN(CCCCCc2ccccc2)CC1	EC50	Not Active
Cc1cc(O)cc(C)c1C[C@H](N)C(=O)N1CCN(CCCCc2ccccc2)CC1	EC50	Not Active
Cc1cc(O)cc(C)c1C[C@H](N)C(=O)N1CCC(Cc2ccccc2)c2ccccc21 (stereo partly specified)	EC50	Not Active

Give recorded EC50. `Cc1cc(O)cc(C)c1C[C@H](N)C(=O)N1CCN(C/C=C\Cc2ccccc2)CC1`
Not Active

Give recorded EC50. `Cc1cc(O)cc(C)c1C[C@H](N)C(=O)N1CCN(C/C=C/c2cccc3ccccc23)CC1`
Not Active

Give recorded EC50. `Cc1cc(O)cc(C)c1C[C@H](N)C(=O)N1CCN(CCCc2cccc3ccccc23)CC1`
Not Active

Sourced from ChEMBL document CHEMBL3102699
